B1: glmS ribozyme (parent)
chain: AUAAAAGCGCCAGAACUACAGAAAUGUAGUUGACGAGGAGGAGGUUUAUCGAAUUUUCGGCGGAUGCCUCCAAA

- Variants of: B1
- RUN DESCRIPTION: self-cleavage kobs at 640 uM GlcN6P; higher = faster cleavage; RNA array
- RECORDED CONDITIONS: with glucosamine-6-phosphate
This sample holds only a part of the variants without activity.
Can you tell me self-cleavage kobs at 640 uM GlcN6P for the items I'm about to list?

q: Answer with the recorded self-cleavage kobs at 640 uM GlcN6P of G13C A36U G59A only.
a: < 1e-05 s⁻¹

q: Give self-cleavage kobs at 640 uM GlcN6P for the following variant: G32A G44U A53C
a: < 1e-05 s⁻¹

q: State its self-cleavage kobs at 640 uM GlcN6P: A12C C34A
a: < 1e-05 s⁻¹

q: Indicate the recorded self-cleavage kobs at 640 uM GlcN6P value for this variant: G9U G32C A42U
a: < 1e-05 s⁻¹

q: Output self-cleavage kobs at 640 uM GlcN6P of U31G G51C U57C
a: < 1e-05 s⁻¹

q: Supply self-cleavage kobs at 640 uM GlcN6P value. Item: A6C C34A
a: < 1e-05 s⁻¹

q: For the variant A6G U46C U47A , report self-cleavage kobs at 640 uM GlcN6P.
a: < 1e-05 s⁻¹

q: Give the reported self-cleavage kobs at 640 uM GlcN6P for this variant. A6G C10G U46G
a: < 1e-05 s⁻¹

q: Note down self-cleavage kobs at 640 uM GlcN6P recorded for G7U G32U
a: < 1e-05 s⁻¹

q: Give reported self-cleavage kobs at 640 uM GlcN6P value for G7U U49A
a: < 1e-05 s⁻¹

q: Retrieve self-cleavage kobs at 640 uM GlcN6P measured for G32A A42U and print it.
a: < 1e-05 s⁻¹

q: Item C34A C71A : provide self-cleavage kobs at 640 uM GlcN6P
a: < 1e-05 s⁻¹

q: Report self-cleavage kobs at 640 uM GlcN6P, nothing else, for this variant: G51C U56G
a: < 1e-05 s⁻¹

q: Look up self-cleavage kobs at 640 uM GlcN6P of G43A G51C U54C C71U and report it.
a: < 1e-05 s⁻¹

q: Assign self-cleavage kobs at 640 uM GlcN6P to the following record: C10U A39U A52U C58G C71U
a: < 1e-05 s⁻¹

q: Provide self-cleavage kobs at 640 uM GlcN6P value for the following variant: G9A G35A A48C C50G
a: < 1e-05 s⁻¹

q: Identify the reported self-cleavage kobs at 640 uM GlcN6P for the following entry. G35C A36C
a: < 1e-05 s⁻¹

q: Fill in reported self-cleavage kobs at 640 uM GlcN6P for this entry: G9U G32C A33G A39G A48U C61U G63U A64U
a: < 1e-05 s⁻¹

q: Respond only with self-cleavage kobs at 640 uM GlcN6P recorded for A14C C34A
a: < 1e-05 s⁻¹

q: Retrieve self-cleavage kobs at 640 uM GlcN6P measured for C8U U65G and print it.
a: < 1e-05 s⁻¹

q: Specify reported self-cleavage kobs at 640 uM GlcN6P for the variant shown: C34A G60U C68A
a: < 1e-05 s⁻¹

q: Tell me self-cleavage kobs at 640 uM GlcN6P reported for C11G G40A U45G
a: < 1e-05 s⁻¹

q: Output measured self-cleavage kobs at 640 uM GlcN6P for this item: G7A U56C
a: < 1e-05 s⁻¹

q: Could you please provide reported self-cleavage kobs at 640 uM GlcN6P for G7A U56A ? Thanks!
a: < 1e-05 s⁻¹

q: Tell me its self-cleavage kobs at 640 uM GlcN6P given C10A G60A as the entry.
a: < 1e-05 s⁻¹

q: Answer with the recorded self-cleavage kobs at 640 uM GlcN6P for the variant listed here: C10G C11G G32C G59C C67G
a: < 1e-05 s⁻¹

q: Retrieve self-cleavage kobs at 640 uM GlcN6P measured for C10U U30G and print it.
a: < 1e-05 s⁻¹

q: Let me know recorded self-cleavage kobs at 640 uM GlcN6P for G7U A48U , thanks.
a: < 1e-05 s⁻¹

q: Specify measured self-cleavage kobs at 640 uM GlcN6P for G7A G13U .
a: < 1e-05 s⁻¹

q: Answer with the recorded self-cleavage kobs at 640 uM GlcN6P for the variant listed here: A42U G44C
a: < 1e-05 s⁻¹

q: Determine from records and report self-cleavage kobs at 640 uM GlcN6P for A33C G38U
a: < 1e-05 s⁻¹

q: Given A15G G41U G62U , respond with its self-cleavage kobs at 640 uM GlcN6P.
a: < 1e-05 s⁻¹

q: Identify measured self-cleavage kobs at 640 uM GlcN6P associated with C8U A33U U46G A53G U55A
a: < 1e-05 s⁻¹

q: Please give the documented self-cleavage kobs at 640 uM GlcN6P of G9U A36G A39U
a: < 1e-05 s⁻¹

q: For the variant A6U G9C , give its measured self-cleavage kobs at 640 uM GlcN6P value.
a: < 1e-05 s⁻¹

q: Report self-cleavage kobs at 640 uM GlcN6P for G29C G59U C71U
a: < 1e-05 s⁻¹

q: Let me know recorded self-cleavage kobs at 640 uM GlcN6P for G32U A52U C58U , thanks.
a: < 1e-05 s⁻¹

q: Give the reported self-cleavage kobs at 640 uM GlcN6P for this variant. C10U A12U G29C G41U C70U
a: < 1e-05 s⁻¹

q: Please list self-cleavage kobs at 640 uM GlcN6P recorded for the variant A15C A33C G59C
a: < 1e-05 s⁻¹

q: State its self-cleavage kobs at 640 uM GlcN6P: A12U C16U U54A
a: 0.00766 s⁻¹

q: Given A42U U55G , respond with its self-cleavage kobs at 640 uM GlcN6P.
a: 8.8e-05 s⁻¹

q: For C11U U69A , write its self-cleavage kobs at 640 uM GlcN6P.
a: 0.000191 s⁻¹

q: Answer with reported self-cleavage kobs at 640 uM GlcN6P of C11U G35U C68G C70A
a: 0.000984 s⁻¹

q: Item A14U C58A C70A : provide self-cleavage kobs at 640 uM GlcN6P
a: 7.42e-05 s⁻¹

q: Note self-cleavage kobs at 640 uM GlcN6P for the variant shown: C58A C71U
a: 7.43e-05 s⁻¹

q: Provide measured self-cleavage kobs at 640 uM GlcN6P value, entry: A39C G41A
a: < 1e-05 s⁻¹

q: Please give measured self-cleavage kobs at 640 uM GlcN6P of the following entry: G29C C58A
a: 3.49e-05 s⁻¹

q: Dear colleague, please send me the reported self-cleavage kobs at 640 uM GlcN6P for U65G C71A when you can.
a: 0.000497 s⁻¹

q: Note self-cleavage kobs at 640 uM GlcN6P for the variant shown: G41A U46A
a: 0.000168 s⁻¹

q: Provide self-cleavage kobs at 640 uM GlcN6P value for the following variant: C10A G13C C61G G66A C70A
a: 0.000102 s⁻¹

q: Report self-cleavage kobs at 640 uM GlcN6P for G7U A14C G37C
a: < 1e-05 s⁻¹

q: Look up and state reported self-cleavage kobs at 640 uM GlcN6P for A14C G41A G62U C70G
a: < 1e-05 s⁻¹

q: Give reported self-cleavage kobs at 640 uM GlcN6P value for A14C A15G G40U
a: 8.18e-05 s⁻¹

q: Specify measured self-cleavage kobs at 640 uM GlcN6P for U47G U56C A64G .
a: 2.82e-05 s⁻¹

q: Provide only the value of recorded self-cleavage kobs at 640 uM GlcN6P for G7U G40U C50G
a: < 1e-05 s⁻¹

q: Return the recorded self-cleavage kobs at 640 uM GlcN6P value; entry: C10A C34U C50G G62U
a: 0.000144 s⁻¹

q: Tell me its self-cleavage kobs at 640 uM GlcN6P given G9C U31G U57A as the entry.
a: < 1e-05 s⁻¹

q: Please report the measured self-cleavage kobs at 640 uM GlcN6P for A6C G38C
a: < 1e-05 s⁻¹
